Values from the supplement of paper PMC10981050

# Tested on: MARIMO;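 further: after 48 h exposure read by CellTiter-Glo luminescence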
# method_notes: cell viability relative to vehicle control; higher = less cytotoxic
# measurement_context: 10 µM; SRSF2 genotype: SRSF2 P95H/wt
# cell viability annotations
recorded_endpoint: cell viability

[
  {
    "item_smiles": "COc1ccc([C@]2(C#N)CC[C@@H](C(=O)O)CC2)cc1OC1CCCC1",
    "recorded_endpoint": "cell viability",
    "measured_result": "93.8%"
  },
  {
    "item_smiles": "OC[C@H]1O[C@@H](c2ccc(Cl)c(Cc3ccc(O[C@H]4CCOC4)cc3)c2)[C@H](O)[C@@H](O)[C@@H]1O",
    "recorded_endpoint": "cell viability",
    "measured_result": "89.4%"
  },
  {
    "item_smiles": "O=C(O)c1cc(I)ccc1NC(=O)[C@H](Cc1ccccc1)NCc1ccccc1",
    "recorded_endpoint": "cell viability",
    "measured_result": "99.9%"
  },
  {
    "item_smiles": "CCc1cc(Nc2nc(-c3ccc(-n4cnc(C)c4)c(F)c3)cs2)c(C)cc1C",
    "recorded_endpoint": "cell viability",
    "measured_result": "93.8%"
  },
  {
    "item_smiles": "O=C(O)c1ccc(Nc2ncc3c(n2)-c2ccc(Cl)cc2C(c2c(F)cccc2F)=NC3)cc1",
    "recorded_endpoint": "cell viability",
    "measured_result": "80.4%"
  },
  {
    "item_smiles": "CC(C)Nc1cc(-c2c[nH]c(C(=O)N[C@H](CO)c3cccc(Cl)c3)c2)c(Cl)cn1",
    "recorded_endpoint": "cell viability",
    "measured_result": "37.9%"
  },
  {
    "item_smiles": "O=c1cc(-c2ccc(O)c(O)c2O)oc2ccccc12",
    "recorded_endpoint": "cell viability",
    "measured_result": "98.5%"
  },
  {
    "item_smiles": "O=c1cc(N2CCOCC2)oc2c(-c3ccc4c(c3)OCCO4)csc12",
    "recorded_endpoint": "cell viability",
    "measured_result": "36.4%"
  },
  {
    "item_smiles": "C[C@@H]1C(=O)O[C@H](C)[C@H]1C[C@@H](O)[C@](C)(O)[C@H]1CC[C@@]2(O)C3=CC(=O)[C@@H]4C[C@@H](O)[C@@H](O)C[C@]4(C)[C@H]3CC[C@]12C",
    "recorded_endpoint": "cell viability",
    "measured_result": "95.2%"
  }
]

* * *

# cell viability annotations
# System: MARIMO;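 further: after 48 h exposure read by CellTiter-Glo luminescence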
# method_notes: cell viability relative to vehicle control; higher = less cytotoxic
# measurement_context: 10 µM; SRSF2 genotype: SRSF2 wt/wt
Where a name gives a salt, the structure may show the parent alone.

[
  {
    "compound": "Nc1ncnc2c1ncn2[C@@H]1O[C@H](CO)[C@@H](O)[C@H]1O [Adenosine (Adenocard)]",
    "cell viability (%)": 98.5
  },
  {
    "compound": "CC1(N)CCN(c2cnc(-c3cccc(Cl)c3Cl)c(N)n2)CC1 [SHP099 hydrochloride]",
    "cell viability (%)": 106
  },
  {
    "compound": "CC(=O)Nc1nc(C)c(-c2ccc(Cl)c(S(=O)(=O)NCCO)c2)s1",
    "cell viability (%)": 38.7
  },
  {
    "compound": "C[C@H]1COC2=C1C(=O)C(=O)c1c2ccc2c1CCCC2(C)C [Cryptotanshinone]",
    "cell viability (%)": 76.1
  },
  {
    "compound": "CC#Cc1cncc(-c2ccc3c(c2)C2(N=C(C)C(N)=N2)C2(CCC(OC)CC2)C3)c1 (stereo not drawn)",
    "cell viability (%)": 103
  },
  {
    "compound": "C[C@H]1CN(C[C@H](Cc2ccccc2)C(=O)NCC(=O)O)CC[C@@]1(C)c1cccc(O)c1 [Alvimopan dihydrate]",
    "cell viability (%)": 112
  },
  {
    "compound": "CC(C)c1cccc(O)c(=O)c1",
    "cell viability (%)": 70.3
  },
  {
    "compound": "COc1cc2/c(=N/c3ccc(Br)cc3F)nc[nH]c2cc1OCC1CCN(C)CC1 [Vandetanib (ZD6474)]",
    "cell viability (%)": 97.2
  },
  {
    "compound": "O=C(O)c1ccc(NC(=O)[C@H](Cc2ccc(O)cc2)NC(=O)c2ccccc2)cc1 [bentiromide]",
    "cell viability (%)": 111
  },
  {
    "compound": "COc1cc(CCc2cc(NC(=O)c3ccc(N4CC(C)NC(C)C4)cc3)n[nH]2)cc(OC)c1 (stereo not drawn)",
    "cell viability (%)": 42.1
  },
  {
    "compound": "CCCSc1nc(N[C@@H]2C[C@H]2c2ccc(F)c(F)c2)c2nnn([C@@H]3C[C@H](OCCO)[C@@H](O)[C@H]3O)c2n1 [Ticagrelor]",
    "cell viability (%)": 86.5
  },
  {
    "compound": "C=C1CC[C@H]2C(=C)CC[C@H]3C(=C)C(=O)O[C@@H]3[C@@H]12 [Dehydrocostus Lactone]",
    "cell viability (%)": 16.1
  },
  {
    "compound": "CC(C)n1c(/C=C/C(O)CC(O)CC(=O)O)c(-c2ccc(F)cc2)c2ccccc21 (stereo not drawn) [Fluvastatin sodium (Lescol)]",
    "cell viability (%)": 46.6
  },
  {
    "compound": "O=c1c(O)c(-c2ccc(O)c(O)c2)oc2cc(O)cc(O)c12 [Quercetin (Sophoretin)]",
    "cell viability (%)": 93.6
  },
  {
    "compound": "Cc1ccc(C(=O)Nc2cccc(C(F)(F)F)c2)cc1Nc1nc(-c2cccnc2)nc2c1cnn2C",
    "cell viability (%)": 60.5
  },
  {
    "compound": "CNC(=O)c1ccccc1Nc1cc(Nc2ccc(N3CCOCC3)cc2OC)ncc1C(F)(F)F",
    "cell viability (%)": 35.2
  },
  {
    "compound": "O=C1C(=Cc2ccncc2)CCCC1=Cc1ccncc1",
    "cell viability (%)": 0.58
  },
  {
    "compound": "NNC(=O)c1ccncc1.Nc1ccc(C(=O)O)c(O)c1 [pasiniazid]",
    "cell viability (%)": 106
  },
  {
    "compound": "CCc1cncnc1N1CCN(Cc2nc3ccc(C(F)(F)F)cc3[nH]2)CC1",
    "cell viability (%)": 47.9
  },
  {
    "compound": "C[C@@H](O[C@H]1OCCN(Cc2nn(P(=O)(O)O)c(=O)[nH]2)[C@H]1c1ccc(F)cc1)c1cc(C(F)(F)F)cc(C(F)(F)F)c1 [Fosaprepitant dimeglumine salt]",
    "cell viability (%)": 52.6
  },
  {
    "compound": "O=C(/C=C/c1ccc(O)cc1)c1ccc(O)cc1O [Isoliquiritigenin]",
    "cell viability (%)": 98.4
  },
  {
    "compound": "Cn1c(=O)c2c(ncn2CC(O)CO)n(C)c1=O (stereo not drawn) [Dyphylline (Dilor)]",
    "cell viability (%)": 105
  },
  {
    "compound": "Cn1c(O)c(C2=c3ccccc3=NC2=O)c2ccccc21 [Meisoindigo]",
    "cell viability (%)": 0.66
  },
  {
    "compound": "CO/N=C(\\C(=O)N[C@@H]1C(=O)N2C(C(=O)O)=C(CSc3nnnn3C)CS[C@H]12)c1csc(N)n1 [Cefmenoxime hydrochloride]",
    "cell viability (%)": 97.1
  },
  {
    "compound": "CC(=O)c1cc([N+](=O)[O-])c(Sc2ccc(F)cc2F)s1",
    "cell viability (%)": 54.2
  },
  {
    "compound": "C=C(C(=O)O)C1CCC(C)C2CCC(C)=CC12 (stereo not drawn) [Artemisic acid]",
    "cell viability (%)": 90.8
  },
  {
    "compound": "Nc1ccc(S(=O)(=O)Nc2ncccn2)cc1 [Sodium sulfadiazine]",
    "cell viability (%)": 97.4
  },
  {
    "compound": "CC(O)c1ccc(S(=O)(=O)NC(=O)NC2CCCCC2)cc1 (stereo not drawn) [Hydroxyhexamide]",
    "cell viability (%)": 99
  },
  {
    "compound": "COC(=O)C1=C(C)NC(C)=C(C(=O)OC)C1c1ccccc1[N+](=O)[O-] [Nifedipine (Adalat)]",
    "cell viability (%)": 51.7
  },
  {
    "compound": "C/C=C1\\[C@H]2C=C(C)C[C@]1(N)c1ccc(=O)[nH]c1C2 [(-)-Huperzine A (HupA)]",
    "cell viability (%)": 103
  },
  {
    "compound": "CC1(C)CCC2(C(=O)O)CCC3=C(CCC4C3(C)CCC3C4(C)CC(O)C(O)C3(C)C(=O)O)C2C1 (stereo not drawn) [Polygalic acid]",
    "cell viability (%)": 92
  },
  {
    "compound": "CC(C)C[C@H](NC(=O)[C@H](CCc1ccccc1)NC(=O)CN1CCOCC1)C(=O)N[C@@H](Cc1ccccc1)C(=O)N[C@@H](CC(C)C)C(=O)[C@@]1(C)CO1 [Carfilzomib (PR-171)]",
    "cell viability (%)": 1.08
  },
  {
    "compound": "Cc1cc(O)c(-c2ccc([C@@H](C)CN)cc2)c2c1[nH]c(=O)c1sccc12 [OTS514 hydrochloride]",
    "cell viability (%)": 1.35
  }
]
